# subjectOfTest: porcine pancreatic PLA2 (Sus scrofa, UniProt P00592)
# Construct: purchased Sigma
# Sequence (P00592 23-146): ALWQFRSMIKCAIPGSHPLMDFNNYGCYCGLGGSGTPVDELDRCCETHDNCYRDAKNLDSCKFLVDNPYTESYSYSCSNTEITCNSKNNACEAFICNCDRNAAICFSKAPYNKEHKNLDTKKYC
# assayComment: Inhibition of porcine pancreatic phospholipase A2 (PLA2), radiochemical assay
# Type: biochemical
# conditionContext: 100 uM substrate concentration
pIC50: −log10 of the molar value.
observedProperty: pIC50

                                   compound  numericresult
0  CCCCCCCCCCCCCCCCOCC(CCSCCCN(C)C)OC(C)=O (centres unmarked)           4.01
1  CCCCCCCCCCCCCCCCOCC(CCSCCC[N+](C)(C)C)OC(C)=O (centres unmarked)           4.70

* * *

Documented IC50 across a set of compounds
# subjectOfTest: porcine pancreatic PLA2 (Sus scrofa)
# Construct: purchased Sigma
# assayComment: Inhibition of porcine pancreatic phospholipase A2 (PLA2), radiochemical assay
# Type: biochemical
# conditionContext: 2 nM substrate concentration
observedProperty: IC50 (µM)

                                   compound  numericresult
0  CCCCCCCCCCCCCCCCOCC(CCSCCCN(C)C)OC(C)=O (centres unmarked)           18.6
1  CCCCCCCCCCCCCCCCOCC(CCSCCC[N+](C)(C)C)OC(C)=O (centres unmarked)           2.52

* * *

# subjectOfTest: porcine pancreatic PLA2 (Sus scrofa)
# Construct: purchased Sigma
# assayComment: Inhibition of porcine pancreatic phospholipase A2 (PLA2), radiochemical assay
# Assay type: biochemical
# conditionContext: 500 uM substrate concentration
observedProperty: IC50 (µM)

In [3]: df
Out[3]:
                                   molecule                         subjectoftest  numericresult
0  CCCCCCCCCCCCCCCCOCC(CCSCCCN(C)C)OC(C)=O (centres unmarked)  porcine pancreatic PLA2 (Sus scrofa)            226
1  CCCCCCCCCCCCCCCCOCC(CCSCCC[N+](C)(C)C)OC(C)=O (centres unmarked)  porcine pancreatic PLA2 (Sus scrofa)           96.8

* * *

# subjectOfTest: porcine pancreatic PLA2 (Sus scrofa)
# Construct: purchased Sigma
# assayComment: Inhibition of porcine pancreatic phospholipase A2 (PLA2), radiochemical assay
# Assay type: biochemical
# conditionContext: 1000 uM substrate concentration
observedProperty: IC50 (µM)

>>> print(df.to_string())
                                   compound                         subjectoftest  observedproperty  numericresult
0  CCCCCCCCCCCCCCCCOCC(CCSCCC[N+](C)(C)C)OC(C)=O (stereo not shown)  porcine pancreatic PLA2 (Sus scrofa)              IC50            137

Hello, the source for this data is patent US5126291A, in case you need it.
